Values were extracted from patent US12227488B2.

- assay.system: CRBN and Helios (IKZF2) (Homo sapiens, UniProt Q96SW2+Q9UKS7)
- Construct: His (N); Strep (N)
- Sequence (Q96SW2 whole entry): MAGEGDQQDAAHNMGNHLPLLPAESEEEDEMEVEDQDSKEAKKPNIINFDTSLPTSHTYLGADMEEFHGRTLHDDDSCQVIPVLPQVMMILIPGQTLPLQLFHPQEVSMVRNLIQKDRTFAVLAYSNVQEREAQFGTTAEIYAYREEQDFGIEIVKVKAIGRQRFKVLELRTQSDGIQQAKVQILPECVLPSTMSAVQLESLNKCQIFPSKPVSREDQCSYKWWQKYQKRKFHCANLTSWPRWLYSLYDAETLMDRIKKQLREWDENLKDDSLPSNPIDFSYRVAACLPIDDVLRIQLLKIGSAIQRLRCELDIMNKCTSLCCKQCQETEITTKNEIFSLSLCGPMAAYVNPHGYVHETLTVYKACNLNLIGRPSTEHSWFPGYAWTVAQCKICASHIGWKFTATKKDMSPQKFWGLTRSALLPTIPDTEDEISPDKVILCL
- Sequence (Q9UKS7 whole entry): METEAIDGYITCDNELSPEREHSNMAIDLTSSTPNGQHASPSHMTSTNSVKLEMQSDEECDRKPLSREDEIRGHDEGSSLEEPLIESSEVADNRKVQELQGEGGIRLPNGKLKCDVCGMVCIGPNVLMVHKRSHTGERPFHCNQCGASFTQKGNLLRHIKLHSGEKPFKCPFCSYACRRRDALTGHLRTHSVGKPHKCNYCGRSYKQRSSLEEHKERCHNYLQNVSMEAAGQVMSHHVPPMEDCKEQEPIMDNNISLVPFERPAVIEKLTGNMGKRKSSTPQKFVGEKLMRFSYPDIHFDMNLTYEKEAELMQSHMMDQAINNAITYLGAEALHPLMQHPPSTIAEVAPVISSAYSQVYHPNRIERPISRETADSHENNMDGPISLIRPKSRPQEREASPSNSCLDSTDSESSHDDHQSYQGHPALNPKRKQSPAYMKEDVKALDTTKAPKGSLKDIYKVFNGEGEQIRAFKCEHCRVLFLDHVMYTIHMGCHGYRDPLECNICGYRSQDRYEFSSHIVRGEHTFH
- measurement.description: TR-FRET dimerization assay (CRBN-IKZF2 ternary complex formation)
- Format: binding
- cond: compound concentration 6.6667E−07 (667 nM); n=1
Listing of entries alongside the reported TR-FRET-IKZF2 (Normalized to CC-885).
measure.name: TR-FRET-IKZF2 (Normalized to CC-885)

CN(C1=CC(=O)N(C2CCC(=O)NC2=O)C1=O)c1ccccc1 (stereo not shown) [Compound 28] ... 0.053
Cc1ccc(NC(=O)N[C@H](C)c2cccc(NC3=CC(=O)N(C4CCC(=O)NC4=O)C3=O)c2)cc1Cl (stereo partly shown) [Compound 70] ... 1.271
Cc1cc(CNC(=O)NC(C)c2cccc(NC3=CC(=O)N(C4CCC(=O)NC4=O)C3=O)c2)ccc1Cl (stereo not shown) [Compound 120] ... 0.860
Cc1ccc(NC(=O)Nc2cccc(NC3=CC(=O)N(C4CCC(=O)NC4=O)C3=O)c2)cc1Cl (stereo not shown) [Compound 43] ... 0.278
O=C1CCC(N2C(=O)C=C(Nc3cccc(NC(=O)Nc4ccc(Cl)c(Cl)c4)c3)C2=O)C(=O)N1 (stereo not shown) [Compound 56] ... 0.187
Cc1ccc(CNC(=O)CCc2cccc(NC3=CC(=O)N(C4CCC(=O)NC4=O)C3=O)c2)cc1Cl (stereo not shown) [Compound 121] ... 1.357
Cc1ccc(NC(=O)NC(C)c2cccc(NC3=CC(=O)N(C4CCC(=O)NC4=O)C3=O)c2)cc1Cl (stereo not shown) [Compound 54] ... 1.382
